- test_summary: protein stability index of a GFP-peptide fusion (GPS, HEK-293T) (PSI 1-6); higher = more stable;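 note: 24-mer peptide tiles fused after GFP, lentivirally expressed, FACS-sorted into six equal bins by GFP/DsRed ratio, decoded by Illumina sequencing, PSI is the read-weighted mean bin number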
- measurement_setup: treatment: MLN4924 1 uM, 8 h; c terminus: a fixed tail appended
Decision: protein stability index compared against 4; not below it gives Satisfied, below it gives Not satisfied.

> print(dat)
                         chain.sequence            cat
 1      TFGAAACSIGFAVRYLNAYTGIVL [POP5]  Not satisfied
 2     RRSQQQQVPVVDFQAELRQAFLAE [SNURF]  Not satisfied
 3   GWGEVMLMADKVLRWERAWFPPAI [ARL6IP1]  Not satisfied
 4  ELSLVTLFRCIQNMPETLPNNSCY [TNFSF13B]  Not satisfied
 5    ITPWTPSPSEKNSSFTWSVPSSGY [SMTNL2]  Not satisfied
 6     PEGHVLRSDGKTCAKLDSCALGDH [MATN2]      Satisfied
 7    KLIKCDEIQVDSEEPVFEAVINWV [KLHL12]  Not satisfied
 8      EDEDIYKLRHDLKKTSITQQPSKH [PLK2]      Satisfied
 9    DPRYNKWMQVASLNEKRTFFHLSA [KLHL13]  Not satisfied
10     RILQEKLDQPVSAPPSPRDISMEI [CCDC6]  Not satisfied
11    TEQAVALLRDRTGQQSDTAQLELY [SCARA5]      Satisfied
12    AALDACSGNDPFAPSEGSAEAAPE [SNAP91]      Satisfied
13     KTKEVQHNCQLHRISFCADDKTDK [GULP1]      Satisfied
14     IIPTPDEEEKILRVKLEEDPDGEE [ZNF24]      Satisfied
15     AKAAALSTKTPAPCSEFMEPSSDP [SPAG8]      Satisfied
16     VILFSSAVYFAEAEEAESHFSSIP [KCNA1]  Not satisfied
17       QRIKSQERETEATRGRGGLLRDHI [MOG]      Satisfied
18     EEFAAGPAQSGILSDREVVNLFLH [BTBD1]  Not satisfied
19     DVGDWRKNIEEKSGMEGRKKMFES [TNNI2]      Satisfied
20    KVPIAQDELALSLGYAASLEASVQ [C2CD2L]  Not satisfied
21     GEAQPGLPQEDPSTSQGCAQPQGA [FEM1A]      Satisfied
22    AALHGLEETKKLANKYLVEDVLLL [KLHL14]  Not satisfied
23     AKGGFSGCSAVLSGGSSSSFRAGS [KRT71]  Not satisfied
24    PRTRARLGANEVLLVVGGFGSQQS [KLHL12]  Not satisfied
25    SSSRGSSHCDSPSPQEDGQIMFDV [BNIP3L]      Satisfied

Reference source for all entries: the supplement of paper PMC10567573
